Origin of the recorded values: BigSolDB 2.1

settings: in methyl acetate, 278.15 K

{"smiles.notation": "O=[N+]([O-])c1c(Cl)cc(Cl)c([N+](=O)[O-])c1Cl", "solubility (mole fraction)": 0.074}

* * *

conditions: in methanol, 313.15 K

{"smiles.notation": "O=[N+]([O-])c1c(Cl)cc(Cl)c([N+](=O)[O-])c1Cl", "solubility (mole fraction)": 0.0849}

* * *

conditions: in n-butanol, 308.15 K

{"smiles.notation": "O=[N+]([O-])c1c(Cl)cc(Cl)c([N+](=O)[O-])c1Cl", "solubility (mole fraction)": 0.013}

* * *

settings: in chloroform, 278.15 K

{"smiles.notation": "O=[N+]([O-])c1c(Cl)cc(Cl)c([N+](=O)[O-])c1Cl", "solubility (mole fraction)": 0.0715}

* * *

details: in methanol, 303.15 K

{"smiles.notation": "O=[N+]([O-])c1c(Cl)cc(Cl)c([N+](=O)[O-])c1Cl", "solubility (mole fraction)": 0.0562}

* * *

details: in chloroform, 288.15 K
quantity: solubility (mole fraction)

{"smiles.notation": "O=[N+]([O-])c1c(Cl)cc(Cl)c([N+](=O)[O-])c1Cl", "result.value": 0.0997}

* * *

conditions: in methyl acetate, 288.15 K
quantity: solubility (mole fraction)

{"smiles.notation": "O=[N+]([O-])c1c(Cl)cc(Cl)c([N+](=O)[O-])c1Cl", "quantity": "solubility (mole fraction)", "result.value": 0.0943}

* * *

details: in methyl acetate, 298.15 K

{"smiles.notation": "O=[N+]([O-])c1c(Cl)cc(Cl)c([N+](=O)[O-])c1Cl", "solubility (mole fraction)": 0.124}

* * *

details: in acetonitrile, 313.15 K
quantity: solubility (mole fraction)

{"smiles.notation": "O=[N+]([O-])c1c(Cl)cc(Cl)c([N+](=O)[O-])c1Cl", "result.value": 0.0769}

* * *

conditions: in ethanol, 298.15 K
quantity: solubility (mole fraction)

{"smiles.notation": "O=[N+]([O-])c1c(Cl)cc(Cl)c([N+](=O)[O-])c1Cl", "result.value": 0.00712}

* * *

settings: in ethyl acetate, 278.15 K

{"smiles.notation": "O=[N+]([O-])c1c(Cl)cc(Cl)c([N+](=O)[O-])c1Cl", "solubility (mole fraction)": 0.0768}

* * *

settings: in ethanol, 318.15 K

{"smiles.notation": "O=[N+]([O-])c1c(Cl)cc(Cl)c([N+](=O)[O-])c1Cl", "solubility (mole fraction)": 0.0132}

* * *

conditions: in n-butanol, 303.15 K

{"smiles.notation": "O=[N+]([O-])c1c(Cl)cc(Cl)c([N+](=O)[O-])c1Cl", "solubility (mole fraction)": 0.0108}

* * *

conditions: in acetonitrile, 318.15 K

{"smiles.notation": "O=[N+]([O-])c1c(Cl)cc(Cl)c([N+](=O)[O-])c1Cl", "solubility (mole fraction)": 0.0928}

* * *

conditions: in methanol, 293.15 K

{"smiles.notation": "O=[N+]([O-])c1c(Cl)cc(Cl)c([N+](=O)[O-])c1Cl", "solubility (mole fraction)": 0.0221}

* * *

settings: in n-propanol, 298.15 K

{"smiles.notation": "O=[N+]([O-])c1c(Cl)cc(Cl)c([N+](=O)[O-])c1Cl", "solubility (mole fraction)": 0.00793}
